# system-tested: T1, human GIP receptor (human) (UniProt P48546)
# T1 sequence (looked up): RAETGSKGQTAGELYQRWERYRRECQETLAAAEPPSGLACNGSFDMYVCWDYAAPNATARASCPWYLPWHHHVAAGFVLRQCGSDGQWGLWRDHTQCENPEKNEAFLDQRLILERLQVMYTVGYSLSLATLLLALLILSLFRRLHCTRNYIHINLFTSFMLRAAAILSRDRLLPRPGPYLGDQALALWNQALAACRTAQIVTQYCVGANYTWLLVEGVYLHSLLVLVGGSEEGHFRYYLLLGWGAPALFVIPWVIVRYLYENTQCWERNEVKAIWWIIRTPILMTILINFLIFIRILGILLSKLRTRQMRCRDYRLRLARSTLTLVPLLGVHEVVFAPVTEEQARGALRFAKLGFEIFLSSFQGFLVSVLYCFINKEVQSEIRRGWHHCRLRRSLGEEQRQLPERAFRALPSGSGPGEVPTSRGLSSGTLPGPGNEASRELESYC
# measurement-protocol: cell-based or functional assay
Non-standard residues stand in square brackets, D forms with d. No end group written: not given here. αMePhe(2-F) = C[C@](N)(Cc1ccccc1F)C(=O)O; αMeL = CC(C)C[C@](C)(N)C(=O)O; Aib = CC(C)(N)C(=O)O
Field: Relative cAMP EC50. Provide a value for each of the binders that follow.
Answers are plain numbers, in nM.

Below, each entry is followed by its recorded Relative cAMP EC50 result.
>>> endpoint_value("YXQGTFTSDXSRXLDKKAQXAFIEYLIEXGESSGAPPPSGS (non-natural residues, C-terminal amide, acylated Lys with fatty diacid; synthetic construct; SITE 2: note = 2-Aminoisobutyric Acid; SITE 10: note = 3-(4-Pyridyl)-L-alanine; SITE 13: note = alpha-methyl-leucine; SITE 17: note = Lysine is chemically modified through conjugation of the epsilon-amino group of the Lysine side chain with (2-[2-(2-Amino-ethoxy)-ethoxy]-acetyl)) [Example 224]")
0.114
>>> endpoint_value("Y[Aib]QGT[αMePhe(2-F)]TSDYSKLLDEIAQKAFIEYLLEGGPSSGEPPPSEG-NH2 (not fully specified (residue 20)) [Example 303]")
0.116
>>> endpoint_value("YXQGTXTSDXXIXLDXKAAXEFIEXLLEGGPSSGAPPPSGS (synthetic construct; SITE 2: note = 2-Aminoisobutyric Acid; SITE 6: note = alpha-methyl-2-fluoro-L-phenylalanine; SITE 10: note = 3-(4-Pyridyl)-L-alanine; SITE 11: note = alpha-methyl-L-serine; SITE 13: note = alpha-methyl-leucine; SITE 16: note = L-ornithine; SITE 17: note = Lysine is chemically mo) [Example 672 (SEQ ID NO: 678)]")
0.014
>>> endpoint_value("YXQGTFTSDXSQXLDKKAQXAFIEXLLEGGPSSGAPPPSGSEE (synthetic construct; SITE 2: note = 2-Aminoisobutyric Acid; SITE 10: note = 3-(4-Pyridyl)-L-alanine; SITE 13: note = alpha-methyl-leucine; SITE 17: note = Lysine is chemically modified through conjugation of the epsilon-amino group of the Lysine side chain with (gamma-Glu)2-CO-(CH2)16-CO2H; SITE 20:) [Example 945]")
0.246

Continue with the binder presented below.
Req: Look at this binder and give its reported Relative cAMP EC50. Y[Aib]QGTFTSDYSI[αMeL]LDKQAAKQFIEYLIA[Aib]GPSSGEPPPSEG-NH2 (not fully specified (residue 20)) [Example 349]
Resp: 0.152

Every entry's value here was drawn from patent US20240270821A1.
